Reported EC50 values are given for each entry in this list.
test system: Wnt activity (Sp5-Luc reporter, Wnt-responsive promoter) in SW480 colon carcinoma cells; assay: Wnt activity screening assay: Sp5-Luc reporter gene assay in SW480 cells; assay type: cell-based; conditions: Homo sapiens, overnight incubation, 10-point curve starting from 10 μM
Your answer should be a plain number; it is taken to be in nM.

Field: example entries. Status: answers known.
INSERT INTO results (molecule, observable, unit_spec, numeric_readout) VALUES
  ('Clc1ccc(-c2cccc3[nH]c(-c4n[nH]c5ccc(-c6cncc(CN7CCCC7)c6)nc45)nc23)s1 [Compound 1049]', 'EC50', 'nM', 1250),
  ('Cn1cc(-c2ccc3[nH]nc(-c4nc5c(N6CCCCC6)cccc5[nH]4)c3n2)c(CO)n1 [Compound 1134]', 'EC50', 'nM', 3390),
  ('c1cncc(-c2ccc3[nH]nc(-c4nc5c(-c6cccnc6)cccc5[nH]4)c3n2)c1 [Compound 88]', 'EC50', 'nM', 2620),
  ('Cc1ccc(-c2cccc3[nH]c(-c4n[nH]c5ccc(-c6cncc(N)c6)nc45)nc23)s1 [Compound 395]', 'EC50', 'nM', 78);

Request: EC50 lookup needed for CC(C)(C)C(=O)Nc1cncc(-c2ccc3[nH]nc(-c4nc5c(-c6ccc(F)cc6)cccc5[nH]4)c3n2)c1 [Compound 36] , thanks.
Response: 3010

Request: Repeat for the following molecule: Cn1cc(-c2ccc3[nH]nc(-c4nc5c(-c6ccc(F)cc6)cccc5[nH]4)c3n2)c(CO)n1 [Compound 1129]
Response: 2200

Request: Repeat for the following molecule: c1cncc(-c2ccc3[nH]nc(-c4nc5ccccc5[nH]4)c3n2)c1 [Compound 256]
Response: 5480
